FYI, the data here is from the supplement of paper PMC10567573.

Quick list: protein stability index per entry.
B1: KLHL14 (parent)
chain: WLYCYDPVMDVWARKQDMNTKRAI

Variants of: B1
PROTOCOL NOTES: protein stability index of a GFP-peptide fusion (GPS, HEK-293T) (PSI 1-6); higher = more stable;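 also: lentivirally expressed fusions sorted by FACS into six bins by GFP to DsRed ratio, PSI derived from sequencing read proportions per bin multiplied by bin number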
CONDITION SET: c terminus: a fixed tail appended
Kindly provide the number alone.

Q: Form field: reported protein stability index of A13F
Ans: 1.57

Q: Consider next the variant Y5E in the same way.
Ans: 2.23

Q: Same question, I24K this time
Ans: 2.44
